Assay: Calcium (Ca^2+) binding assay: fluorescence/absorbance titration of purified protein
Conditions: absorbance at 569
measure: Aholo/Aapo

### Prompt # lookup: Aholo/Aapo of mApple K198D: mApple variant, SEQ ID NO: 23 (protein) EENNMAIIKEFMRFKVHMEGSVNGHEFEIEGEGEGRPYEAFQTAKLKVTKGGPLPFAWDILSPQFMYGSKVYIKHPADIPDYFKLSFPEGFRWERVMNFEDGGIIHVNQDSSLQDGVFIYKVKLRGTNFPSDGPVMQKKTMGWEASEERMYPEDGALKSEIKKRLKLKDGGHYAAEVKTTYKAKKPVQLPGAYIVDIDLDIVSHNEDYTIVEQYERAEGRHSTGGMDELYK
### Response 1.41 (569)
